Biological target: T1, full-length human GPC3 (human, UniProt P51654 25-554)
T1 construct: On CHO (DXB11) or SK-HEP-1 (SK-03) transfectants; also used here for the GPC3 on the hepatoma lines HepG2 and HuH-7; also called human glypican 3
T1 sequence (P51654 25-554 limits assumed): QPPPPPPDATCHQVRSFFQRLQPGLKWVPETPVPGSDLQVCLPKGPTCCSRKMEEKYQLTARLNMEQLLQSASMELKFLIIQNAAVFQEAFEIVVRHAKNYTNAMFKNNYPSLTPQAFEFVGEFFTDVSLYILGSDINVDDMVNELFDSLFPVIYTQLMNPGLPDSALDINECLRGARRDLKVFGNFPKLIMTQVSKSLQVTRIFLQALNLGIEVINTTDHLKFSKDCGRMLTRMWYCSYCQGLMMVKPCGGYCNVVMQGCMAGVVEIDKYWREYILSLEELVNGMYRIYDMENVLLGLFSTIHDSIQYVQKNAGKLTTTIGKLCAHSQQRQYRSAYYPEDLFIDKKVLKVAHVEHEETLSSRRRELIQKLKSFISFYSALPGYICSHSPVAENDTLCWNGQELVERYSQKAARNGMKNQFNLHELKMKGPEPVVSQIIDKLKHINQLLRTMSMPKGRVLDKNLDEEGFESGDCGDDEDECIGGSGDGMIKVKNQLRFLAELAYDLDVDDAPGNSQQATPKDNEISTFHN
Assay: flow cytometry, antibody at 5 µg/mL, HuH-7 cells
observable: FACS X-mode value of the histogram
# output: bare number, no unit

Just so you know, measured FACS X-mode value of the histogram for M18D4 (antibody, human IgG1, kappa, V domains shown, Mouse monoclonal from hybridoma) VH: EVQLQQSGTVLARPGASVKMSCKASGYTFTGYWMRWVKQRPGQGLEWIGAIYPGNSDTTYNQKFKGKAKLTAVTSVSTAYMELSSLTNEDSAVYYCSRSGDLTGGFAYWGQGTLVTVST VL: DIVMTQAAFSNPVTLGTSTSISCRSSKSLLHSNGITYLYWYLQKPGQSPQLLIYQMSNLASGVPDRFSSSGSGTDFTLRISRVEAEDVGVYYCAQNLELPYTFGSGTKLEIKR came out at 2

Data credit: patent US20100248359A1
